Ref: paper PMC12494546

Target system: Y178H (Corynebacterium diphtheriae, UniProt Q6NGJ3, Y178H)
Construct: CR domain, ChtA residues 112-291; N-terminal SUMO/6xHis tag removed by ULP1; apo-form
Assay remarks: Isothermal titration calorimetry with apo-protein injected into hemin chloride at 25 °C in 50 mM Tris-HCl pH 8.0, 200 mM NaCl, 5% DMSO, fitted to a one-site binding model.
Conditions: SEM, n = 3
Measure: Kd (nM)
Answers are plain numbers, in nM.

stdin: Recorded Kd for `C=CC1=C(C)c2cc3[nH]c(cc4nc(cc5[nH]c(cc1n2)c(C)c5CCC(=O)O)C(CCC(=O)O)=C4C)c(C)c3C=C.[Fe+3]` , please?
stdout: 54.8

====

Target system: Y129A (Corynebacterium diphtheriae, UniProt Q6NGJ3, Y129A)
Construct: gene DIP1520; CR domain, ChtA residues 112-291; N-terminal SUMO/6xHis tag removed by ULP1; apo-form
Assay remarks: Isothermal titration calorimetry with apo-protein injected into hemin chloride at 25 °C in 50 mM Tris-HCl pH 8.0, 200 mM NaCl, 5% DMSO, fitted to a one-site binding model.
Conditions: n = 3
Measure: Kd

stdin: Recorded Kd for C=CC1=C(C)c2cc3[nH]c(cc4nc(cc5[nH]c(cc1n2)c(C)c5CCC(=O)O)C(CCC(=O)O)=C4C)c(C)c3C=C.[Fe+3] [hemin] , please?
stdout: > 500 nM

====

Target system: UniProt Q6NIY7
Measure: pKd
Give bare numbers, as −log10 of the molar value.

stdin: Record `C=CC1=C(C)c2cc3[nH]c(cc4nc(cc5[nH]c(cc1n2)c(C)c5CCC(=O)O)C(CCC(=O)O)=C4C)c(C)c3C=C.[Fe+3]` : what is its pKd with UniProt Q6NIY7?
stdout: 8.27

====

Target system: HtaA^CR2 (Corynebacterium diphtheriae)
Sequence (Q6NIZ1 entry or part of it): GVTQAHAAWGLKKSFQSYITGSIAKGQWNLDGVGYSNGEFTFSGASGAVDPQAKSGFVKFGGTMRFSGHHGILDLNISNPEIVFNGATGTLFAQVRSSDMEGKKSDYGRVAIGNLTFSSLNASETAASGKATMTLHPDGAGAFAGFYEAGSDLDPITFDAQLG
Measure: pKd
Answers are plain numbers, as −log10 of the molar value.

stdin: Recorded pKd for C=CC1=C(C)c2cc3[nH]c(cc4nc(cc5[nH]c(cc1n2)c(C)c5CCC(=O)O)C(CCC(=O)O)=C4C)c(C)c3C=C.[Fe+3] [hemin] , please?
stdout: 9.07

====

Target system: K177G + Y178H (Corynebacterium diphtheriae, UniProt Q6NGJ3, K177G/Y178H)
Construct: CR domain, ChtA residues 112-291; N-terminal SUMO/6xHis tag removed by ULP1; apo-form
Sequence (Q6NGJ3 112-291 K177G/Y178H): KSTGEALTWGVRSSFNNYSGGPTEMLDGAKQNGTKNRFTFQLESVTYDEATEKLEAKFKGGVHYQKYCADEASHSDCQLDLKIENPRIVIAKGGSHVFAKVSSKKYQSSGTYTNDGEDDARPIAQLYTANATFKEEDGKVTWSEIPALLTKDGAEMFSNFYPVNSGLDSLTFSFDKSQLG
Assay remarks: Isothermal titration calorimetry with apo-protein injected into hemin chloride at 25 °C in 50 mM Tris-HCl pH 8.0, 200 mM NaCl, 5% DMSO, fitted to a one-site binding model.
Conditions: SEM, n = 3
Measure: Kd (nM)
Numbers only, in nM.

stdin: Recorded Kd for `C=CC1=C(C)c2cc3[nH]c(cc4nc(cc5[nH]c(cc1n2)c(C)c5CCC(=O)O)C(CCC(=O)O)=C4C)c(C)c3C=C.[Fe+3]` , please?
stdout: 27.1

====

Target system: ChtA^CR (WT) (Corynebacterium diphtheriae)
Construct: CR domain, ChtA residues 112-291 (K112-G291); N-terminal SUMO/6xHis tag removed by ULP1; apo-form
Assay remarks: Isothermal titration calorimetry with apo-protein injected into hemin chloride at 25 °C in 50 mM Tris-HCl pH 8.0, 200 mM NaCl, 5% DMSO, fitted to a one-site binding model.
Conditions: SEM, n = 3
Measure: Kd (nM)
Answers are plain numbers, in nM.

stdin: Recorded Kd for `C=CC1=C(C)c2cc3[nH]c(cc4nc(cc5[nH]c(cc1n2)c(C)c5CCC(=O)O)C(CCC(=O)O)=C4C)c(C)c3C=C.[Fe+3]` , please?
stdout: 22.4
